- Tested on: SKOV3 ovarian cancer cells
- test: ZN-c3 dose response, percent cell density (cell titer glow), CRISPR knockout of PPP2R1A vs non-targeting guide RNA
- Format: cell-based
- test-conditions: Homo sapiens, SK-OV-3, 72 h, sgPPP2R1A (CRISPR knockout)
readout-label: EC50 (nM)
Numeric only. Scale: nM

Tell us which EC50 value is on record for C=CCn1c(=O)c2cnc(Nc3ccc(N4CCN(C)CC4)cc3)nc2n1-c1ccc2c(n1)[C@@](O)(CC)CC2
224

* * *

- Test system: SKOV3 cells
- test: ZN-c3 dose response, percent cell density (cell titer glow), PPP2R1A siRNA vs scrambled control
- Assay type: cell-based
- test-conditions: Homo sapiens, SK-OV-3, 72 h, siPPP2R1A
readout-label: EC50 (nM)
Numeric only. Scale: nM

Recall the reported EC50 of C=CCn1c(=O)c2cnc(Nc3ccc(N4CCN(C)CC4)cc3)nc2n1-c1ccc2c(n1)[C@@](O)(CC)CC2 [ZN-c3] when tested on SKOV3 cells.
180

* * *

- System: HEC-59 cells
- test: ZN-c3 dose response, percent cell density (cell titer glow), PPP2R1A siRNA vs scrambled control
- Type: cell-based
- test-conditions: 72 h, HEC-59 cells (PPP2R1A wild-type), siPPP2R1A
readout-label: EC50

Tell us which EC50 value is on record for C=CCn1c(=O)c2cnc(Nc3ccc(N4CCN(C)CC4)cc3)nc2n1-c1ccc2c(n1)[C@@](O)(CC)CC2 [ZN-c3]
436 nM

* * *

- System: H1975 cells
- test: ZN-c3 dose response, percent cell density (cell titer glow), PPP2R1A siRNA vs scrambled control
- Type: cell-based
- test-conditions: Homo sapiens, NCI-H1975, 72 h, siCTRL
readout-label: pEC50
# log scale: pEC50 equals minus log10 of the concentration in mol/L

Tell us which pEC50 value is on record for C=CCn1c(=O)c2cnc(Nc3ccc(N4CCN(C)CC4)cc3)nc2n1-c1ccc2c(n1)[C@@](O)(CC)CC2
6.25

* * *

- System: SW620 cells
- test: ZN-c3 dose response, percent cell density (cell titer glow), PPP2R1A siRNA vs scrambled control
- Assay type: cell-based
- test-conditions: Homo sapiens, SW-620, 72 h, siPPP2R1A
readout-label: EC50 (nM)
Numeric only. Scale: nM

Tell us which EC50 value is on record for C=CCn1c(=O)c2cnc(Nc3ccc(N4CCN(C)CC4)cc3)nc2n1-c1ccc2c(n1)[C@@](O)(CC)CC2 [ZN-c3]
236

* * *

- System: SKOV3 cells
- test: ZN-c3 dose response, percent cell density (cell titer glow), PPP2R1A siRNA vs scrambled control
- Format: cell-based
- test-conditions: Homo sapiens, SK-OV-3, 72 h, siCTRL
- Method: FIG. 9 depicts the percent cell density of SKOV3 (an ovarian cancer cell line) cells after treatment with a 10-point dose response of ZN-c3 for 72 hours, comparing cells transfected with siRNA to PPP2R1A against those transfected with a scrambled control siRNA. Percent cell density is calculated using cell titer glow analysis. […] The effect of PPP2R1A knockdown on influencing cancer cell susceptibility to ZN-c3 was evaluated. […] Percent cell density was calculated using cell titer glow analysis. […]
readout-label: pEC50
# log scale: pEC50 equals minus log10 of the concentration in mol/L

Tell us which pEC50 value is on record for C=CCn1c(=O)c2cnc(Nc3ccc(N4CCN(C)CC4)cc3)nc2n1-c1ccc2c(n1)[C@@](O)(CC)CC2
6.32
